Reference source: PubChem BioAssay (NCI)

Consider the following compounds; for each one, report its TGI.
Test system: NCI-H460 lung
Assay: NCI tumour cell line growth inhibition, 48 h

INPUT: Could you share what TGI was measured for Clc1ccc2c(c1)-c1c3c(nn1-c1ccccc1)-c1ccccc1SC3O2 (stereo not given) , tested on NCI-H460 lung?
OUTPUT: > 100 µM

INPUT: Could you share what TGI was measured for `O=C1CCCC[C@H]1[C@H]1CCC[C@@H]([C@H]2CCCCC2=O)C1=O` , tested on NCI-H460 lung?
OUTPUT: > 100 µM

INPUT: Could you share what TGI was measured for COc1ccc(CC2NCCc3cc(OC)c(OC)cc32)cc1Br (stereo not given) , tested on NCI-H460 lung?
OUTPUT: > 71.4 µM

INPUT: Could you share what TGI was measured for `COc1cccc2c(=O)c3c(sc12)c(N1CCNCC1)nc1ccccc13` , tested on NCI-H460 lung?
OUTPUT: 3.41 µM

INPUT: Could you share what TGI was measured for O=C1CC2CCCC23CC2(CCN13)OCCO2 (stereo not given) , tested on NCI-H460 lung?
OUTPUT: > 100 µM

INPUT: Could you share what TGI was measured for `Cc1ccc(O)c(-c2cscn2)c1` , tested on NCI-H460 lung?
OUTPUT: > 100 µM

INPUT: Could you share what TGI was measured for `C=CCc1ccc(Oc2cc(CC=C)c3c(c2O)O[C@@H](CO)[C@H]3c2ccc(O)c(-c3cc(CC=C)ccc3O)c2)cc1` , tested on NCI-H460 lung?
OUTPUT: > 100 µM

INPUT: Could you share what TGI was measured for `CCOC(=O)NC(Nc1cccc(C(F)(F)F)c1)(C(F)(F)F)C(F)(F)F` , tested on NCI-H460 lung?
OUTPUT: > 100 µM

INPUT: Could you share what TGI was measured for COC1C=COC2(C)Oc3c(C)c(O)c4c(O)c(c(C5SCCS5)c(O)c4c3C2=O)NC(=O)C(C)=C/C=C\C(C)C2OC(C)(C)OC(C2C)C(C)C(OC(C)=O)C1C (stereo not given) , tested on NCI-H460 lung?
OUTPUT: 63.2 µM

INPUT: Could you share what TGI was measured for `COc1ccc2c(cnc3c4cc(OC)c(OC)cc4ccc23)c1` , tested on NCI-H460 lung?
OUTPUT: > 100 µM
